Tested on: barnyardgrass
Assay: Test B flooded paddy test
Type: in vivo, Echinochloa crus-galli
Conditions: 1000 g ai/ha, scale 0 to 100 (0 no effect, 100 complete control)
# if value of Barnyardgrass plant response rating reaches 70, tag Condition met; if it stays below, tag Condition not met

# MOLECULE, DISCRETE LABEL
records = [
    ("CCn1nc(C(C)(C)C)cc1C(=O)Nc1cc(C(=O)N2CCOCC2)ccc1F [Compound 243]", "Condition met"),
    ("CCNC(=O)c1ccc(F)c(N(C(C)=O)C(=O)c2cc(C(C)(C)C)nn2CC)c1 [Compound 399]", "Condition met"),
    ("C=CCN(CC=C)C(=O)c1ccc(F)c(NC(=O)c2cc(C(C)(C)C)nn2CC)c1 [Compound 431]", "Condition not met"),
    ("CCOC(=O)c1ccnc(NC(=O)c2nn(C(C)(C)C)nc2C)c1 [Compound 421]", "Condition not met"),
    ("Cc1nn(C(C)(C)C)nc1C(=O)Nc1cncc(C(=O)N(C)C)c1 [Compound 426]", "Condition not met"),
    ("CCN1N=C(C(C)(C)C)CC1C(=O)Nc1cc(C(=O)N2CCCC2)ccc1F (racemic) [Compound 309]", "Condition met"),
    ("C#CCNC(=O)c1cccc(NC(=O)c2cc(C(C)(C)C)nn2C)n1 [Compound 316]", "Condition not met"),
    ("CCc1cn(C(C)(C)C)nc1C(=O)Nc1cc(C(=O)N(C)C)ccn1 [Compound 232]", "Condition not met"),
    ("CCCOC(=O)c1cc(NC(=O)c2cc(C(C)(C)C)nn2CC)c(F)cc1F [Compound 249]", "Condition not met"),
    ("CCC1=NN(C(C)(C)C)CC1C(=O)Nc1cc(C(=O)N2CC=CC2)ccc1F (racemic) [Compound 340]", "Condition met"),
    ("CCc1cn(C(C)(C)C)nc1C(=O)Nc1cc(C(=O)N(C)CC)ccn1 [Compound 235]", "Condition not met"),
    ("CCn1nc(C(C)(C)C)cc1C(=O)Nc1cc(C(=O)N2CCCC2)ccc1F [Compound 242]", "Condition met"),
    ("CCn1nc(C2(C)CC2)cc1C(=O)Nc1cccc(C(=O)N2CC=CC2)c1 [Compound 304]", "Condition met"),
    ("C#CCOc1cccc(NC(=O)c2cc(C(C)(C)C)nn2CC)c1 [Compound 411]", "Condition not met"),
    ("CCn1nc(C(C)(C)C)cc1C(=O)Nc1cncc(C(=O)NCC(F)(F)F)n1 [Compound 291]", "Condition not met"),
]

These measurements were taken from patent US20060069132A1.
